Where do these numbers come from? They come from a melting point compilation (Tetko et al.).

Reported melting point values for the following molecules.

| molecule | melting point |
| --- | --- |
| CCOC(=O)c1c[nH]c2cc(OC)cc(OC)c2c1=O | 257 to 259 °C |
| CCCN1CCCC1C(=O)O (configuration not stated) | 83 to 85 °C |
| N#Cc1cccc(Oc2ccc(Cl)cc2)n1 | 86 to 88 °C |
| O=C(CCCc1cccs1)Nc1cccc(C(=O)O)c1 | 198 to 200 °C |
| CCNC1=NCC(c2ccccc2)S1 (configuration not stated) | 99 to 101 °C |

Lab book: melting point of "NC(=O)c1ccc(C(=O)O)cn1" noted as 347 to 349 °C

---

Reported melting point values for the following molecules.

| molecule | reported.result |
| --- | --- |
| CN(C)c1ccc(CNC(=O)CCl)cc1 | 59 to 61 °C |
| CCCN1C(=O)C(=O)c2cc(Br)ccc21 | 129 to 131 °C |
| O=C(O)c1cccc(NC(=O)C2CC2)c1 | 264 to 266 °C |

Lab book: melting point of "Cn1cc(C#N)ccc1=O" noted as 159 to 161 °C

Lab book: melting point of "NC(CC(=O)Nc1ccccc1)=NO" noted as 156 to 158 °C

Lab book: melting point of "CCOC(=O)c1nc(C)oc1N" noted as 123 to 125 °C

---

measurement.name: melting point

| molecule | melting point |
| --- | --- |
| COCCc1nnc(-c2cccc(C(=O)O)c2)o1 | 156 to 158 °C |
| NCC(=O)Nc1ccc(F)cc1 | 85 to 87 °C |
| CC(C)(C)OC(=O)N1CCc2ncc(N)cc2C1 | 116 to 118 °C |
| CC(C)OCc1ccc(C(=O)O)cc1 | 114 to 116 °C |
| N#CCC(=O)c1ccc(Cl)cc1Cl | 62 to 64 °C |
| CCc1nnnn1-c1ccccc1N | 107 to 109 °C |

Lab book: melting point of "Nc1ccc(Cl)c(C(=O)NC2CC2)c1" noted as 126 to 128 °C

Lab book: melting point of "Clc1ccc(Br)cc1CBr" noted as 71 to 73 °C

Lab book: melting point of "CN(c1ccc(O)cc1)S(C)(=O)=O" noted as 129 to 131 °C

---

Reported melting point values for the following molecules.

Guide cases for melting point, answers given:
| molecule | melting point |
| --- | --- |
| CCN(CC)c1ccc(-c2nnc(S)n2-c2ccccc2C)cc1 | 232 to 234 °C |
| CCOc1ccc(-n2ncc(C(=O)O)c2C)nn1 | 227 to 229 °C |

Consider now this further molecule.
Lab book: melting point of CC(=O)NC1CNc2ccccc2C1 (stereo not drawn) noted as 124 to 126 °C

---

Reported melting point values for the following compounds.

Guide cases for melting point, answers given:
| smiles.input | melting point |
| --- | --- |
| O=C(CO)N1CCNCC1 | 69 to 71 °C |
| N#Cc1ccc(Cl)cc1NC1CCCC1 | 74 to 76 °C |
| CC(C)(CO)Nc1ccc(Br)cn1 | 103 to 105 °C |

Consider now this further compound.
Lab book: melting point of "NC(=O)c1ccccc1N1CCC(N)CC1" noted as 143 to 145 °C

---

Reported melting point values for the following compounds.

Guide cases for melting point, answers given:
| compound | melting point |
| --- | --- |
| Cn1c(Cl)c(C=O)c2ccccc21 | 92 to 94 °C |
| CC(C)(C)OC(=O)NC(C(N)=NO)c1ccccc1 (stereo not given) | 177 to 179 °C |
| COc1cc(C=O)cc(OC)c1OCc1ccccc1 | 62 to 64 °C |
| O=Cc1ccc(N2CCC(O)CC2)o1 | 103 to 105 °C |
| N#Cc1cccc2cnccc12 | 126 to 128 °C |
| COc1ccc(-c2cc(C(=O)NN)[nH]n2)cc1 | 205 to 220 °C |
| O=C(NCC1CCCCN1)c1ccccc1 (stereo not given) | 109 to 111 °C |
| CC(C)CC(C(=O)O)N1C(=O)C2CC=CCC2C1=O (stereo not given) | 135 to 137 °C |

Lab book: melting point of "Nc1ccc2[nH]nc(N)c2c1" noted as 157 to 159 °C

Lab book: melting point of "CC(C)(C)OC(=O)Nc1cc(N)ccc1F" noted as 92 to 94 °C

---

measurement.name: melting point

| compound | reported.result |
| --- | --- |
| CC(O)CNc1cc(Cl)ncn1 (configuration not stated) | 101 to 103 °C |

Lab book: melting point of "Cc1cc(Cl)nc(-c2cccnc2)n1" noted as 70 to 72 °C

Lab book: melting point of "Cc1nc2c(cnn2-c2ccc(F)cc2)c(=O)[nH]1" noted as 329 to 331 °C

Lab book: melting point of "Cc1occc1C(=O)NCC(=O)O" noted as 143 to 145 °C

Lab book: melting point of "Cc1cc(C(=O)O)ccc1NC(=O)c1cccs1" noted as 199 to 201 °C

---

Reported melting point values for the following compounds.

Lab book: melting point of NC(CC(=O)O)c1ccc(C(F)(F)F)cc1 (stereo not drawn) noted as 219 to 221 °C

Lab book: melting point of "CCCOc1ccc(C(=O)O)cc1N" noted as 122 to 124 °C

Lab book: melting point of "Cc1nnc(-c2ccccc2N)o1" noted as 145 to 147 °C

---

Reported melting point values for the following compounds.

| compound | melting point |
| --- | --- |
| CCOC(=O)Cc1nc2ccccc2[nH]1 | 179 to 181 °C |

Lab book: melting point of "CCCCc1nc2cc(NC(C)=O)ccc2[nH]1" noted as 192 to 194 °C

Lab book: melting point of "O=C(O)C(=O)NNc1ccc(Cl)cc1Cl" noted as 169 to 171 °C

Lab book: melting point of "COc1ccc(C)cc1NCCC(=O)O" noted as 77 to 79 °C

Lab book: melting point of CCNC(=O)C1CCCNC1 (centres undefined) noted as 60 to 62 °C

Lab book: melting point of "O=C(O)c1ccc(-c2nnc(-c3ccccc3)o2)cc1" noted as 299 to 301 °C

---

Reported melting point values for the following compounds.

| smiles.input | melting point |
| --- | --- |
| O=C(COc1ccc(F)cc1)N1CCNCC1 | 89 to 91 °C |
| NC(=O)c1c(F)cc(Br)cc1F | 172 to 174 °C |
| CC(C)c1nnnn1CC(=O)O | 179 to 181 °C |
| O=C(O)CCCNS(=O)(=O)c1ccc(Cl)c(Cl)c1 | 123 to 125 °C |
| CCCOc1ccc(C=O)cc1OCC | 36 to 38 °C |
| Cc1cccc(C)c1NS(=O)(=O)c1ccc(N)cc1 | 212 to 214 °C |
| N#Cc1ccc(Cl)cc1NCC1CC1 | 52 to 54 °C |
| O=C1NC(=O)c2ncccc21 | 241 to 243 °C |
| COc1cc(C(=O)O)ccc1OCc1ccccc1Cl | 143 to 145 °C |
| O=C(O)CSc1cc(Cl)ccc1Cl | 129 to 131 °C |

Lab book: melting point of "OCC#Cc1ccc(Oc2ccccc2)cc1" noted as 42 to 44 °C

Lab book: melting point of "Cc1ccc(C(C)C)c(OCCC(=O)O)c1" noted as 93 to 95 °C

---

Reported melting point values for the following compounds.

Guide cases for melting point, answers given:
| compound | melting point |
| --- | --- |
| O=C1CC2(CCCC2)Oc2ccccc21 | 35 to 37 °C |
| N#Cc1ccsc1NC(=O)CCCl | 150 to 152 °C |
| CN(C)S(=O)(=O)c1cc(C(=O)O)ccc1F | 199 to 201 °C |
| CCCCc1nc(-c2cccc(O)c2)no1 | 51 to 53 °C |
| CCS(=O)(=O)c1ccc(CC(=O)O)cc1 | 53 to 55 °C |

Lab book: melting point of "CNS(=O)(=O)c1cc(N)ccc1OC" noted as 169 to 171 °C

Lab book: melting point of "Nc1ccc(-c2cn3ccccc3n2)cc1" noted as 118 to 120 °C

---

measurement.name: melting point

Guide cases for melting point, answers given:
| molecule | reported.result |
| --- | --- |
| Cc1ccc(-n2nc(C)c(C(=O)O)c2Cl)cc1Cl | 241 to 243 °C |
| C1CCC(NC2=NCCCS2)CC1 | 112 to 114 °C |
| CC(C)(C)OC(=O)NC1(C(N)=NO)CCCC1 | 168 to 170 °C |
| O=[N+]([O-])c1cc(Br)ccc1S | 123 to 125 °C |
| O=C1CC(c2ccccc2)N1 (configuration not stated) | 107 to 109 °C |

Lab book: melting point of "CS(=O)(=O)c1ccc(N)cc1Cl" noted as 193 to 195 °C

Lab book: melting point of CC(Cl)C(=O)N1CCCC(C(N)=O)C1 (configuration not stated) noted as 114 to 116 °C
